Data credit: patent US11136320B2

Listing of entries alongside the reported AUC(0-inf).
assay: PK/PD of NOD-SCID mouse (drug concentration in blood and in tumors); format: in vivo; conditions: NOD-SCID, mouse, plasma, po, 50 mg/kg, p.o. (50 mg/kg), Hep3B model
measurement name: AUC(0-inf) (ng·h/mL)

molecule: COCCNc1cc(NC(=O)N2CCCc3cc(CN4CCN(C)CC4=O)c(C=O)nc32)ncc1C#N [Reference compound, roblitinib, reference compound]
display unit: ng·h/mL
recorded number: 29100

molecule: CSC[C@@H](C)Nc1cc(NC(=O)N2CCCc3cc(CN4CCN(C)CC4=O)c(C=O)nc32)ncc1C#N [Compound 4]
display unit: ng·h/mL
recorded number: 3360

---

pIC50: −log10 of the molar value. Where a name gives a salt, the structure may show the parent alone.
Measurement record for FGFR4 kinase (Homo sapiens (Human), UniProt P22455); quantity recorded: pIC50.

molecule: CSCCNc1cc(NC(=O)N2CCCc3cc(CN(C)C(=O)[C@@H]4CCCO4)c(C=O)nc32)ncc1C#N.Cl [Compound 75, hydrochloride]
pIC50: 8.74
--
molecule: CN1CCN(Cc2cc3c(nc2C=O)N(C(=O)Nc2cc(NCc4cscn4)c(C#N)cn2)CCC3)C(=O)C1
pIC50: 8.68
--
molecule: Cc1ccc(CNc2cc(NC(=O)N3CCCc4cc(CN5CCN(C)CC5=O)c(C=O)nc43)ncc2C#N)s1
pIC50: 8.68
--
molecule: CSCCNc1cc(NC(=O)N2CCCc3cc(CN(C)C(=O)C4CCOCC4)c(C=O)nc32)ncc1C#N.Cl [Compound 73, hydrochloride]
pIC50: 8.64
--
molecule: CN1CCN(Cc2cc3c(nc2C=O)N(C(=O)Nc2cc(NC4CCSC4)c(C#N)cn2)CCC3)C(=O)C1 (stereo not shown)
pIC50: 8.70
--
molecule: CN1CCN(Cc2cc3c(nc2C=O)N(C(=O)Nc2cc(NCc4nccs4)c(C#N)cn2)CCC3)C(=O)C1
pIC50: 8.80
--
molecule: CCSCCNc1cc(NC(=O)N2CCCc3cc(CN4CCN(C)CC4=O)c(C=O)nc32)ncc1C#N [Compound 71, hydrochloride]
pIC50: 8.62

---

experiment: PK/PD of NOD-SCID mouse (drug concentration in blood and in tumors); assay type: in vivo; conditions: NOD-SCID, mouse, plasma, po, 50 mg/kg, p.o. (50 mg/kg), Hep3B model
Listing of entries alongside the reported half-life.

molecule: CSC[C@@H](C)Nc1cc(NC(=O)N2CCCc3cc(CN4CCN(C)CC4=O)c(C=O)nc32)ncc1C#N [Compound 4]
half-life / h: 1.48
//
molecule: COCCNc1cc(NC(=O)N2CCCc3cc(CN4CCN(C)CC4=O)c(C=O)nc32)ncc1C#N [Reference compound, roblitinib, reference compound]
half-life / h: 3.13

---

assay: PK analysis of rats; format: in vivo; settings: rat, plasma, po; SD rats, p.o. (10 mg/kg); read-out: Drug concentration in blood Cmax

structure: CN1CCN(Cc2cc3c(nc2C=O)N(C(=O)Nc2cc(NC4CCSCC4)c(C#N)cn2)CCC3)C(=O)C1
display unit: ng/mL
Cmax: 514
//
structure: CSCCNc1cc(NC(=O)N2CCCc3cc(CN4CCCCOC4=O)c(C=O)nc32)ncc1C#N
display unit: ng/mL
Cmax: 936
//
structure: CSC[C@@H](C)Nc1cc(NC(=O)N2CCCc3cc(CN4CCCC4=O)c(C=O)nc32)ncc1C#N
display unit: ng/mL
Cmax: 736
